Each recorded value in this set is attributed to the supplement of paper PMC10567573.

B1: TNXB (parent)
chain: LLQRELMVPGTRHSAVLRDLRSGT

Variants of: B1
assayMethodText: protein stability index of a GFP-peptide fusion (GPS, HEK-293T) (PSI 1-6); higher = more stable;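 note: lentivirally expressed fusions sorted by FACS into six bins by GFP to DsRed ratio, PSI derived from sequencing read proportions per bin multiplied by bin number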
conditionSummary: c terminus: a fixed tail appended
measuredParameter: protein stability index
Please state the value as a number alone, without comment.

Input: Identify the reported protein stability index for the following entry. `L1F`
Output: 2.41

Input: Name the recorded protein stability index of the item `H13S` in your answer.
Output: 2.9

Input: Tell me measured protein stability index for `D19W` please.
Output: 1.73

Input: // fetch protein stability index given entry `R18A`
Output: 2.68

Input: Please supply the value of reported protein stability index for the item `L20C`
Output: 2.85

Input: Given the variant `L6D` , write its reported protein stability index.
Output: 3.37

Input: Read the entry `L6Y` and write its reported protein stability index.
Output: 2.63

Input: Specify protein stability index for `Q3I` and stop.
Output: 1.72

Input: Quick one: give measured protein stability index for `G23S`
Output: 2.94

Input: Identify protein stability index associated with the variant `E5S`
Output: 2.29

Input: Please report the measured protein stability index for `S22I`
Output: 2.5
